EXPERIMENTAL PROTOCOL: Activation of purified human antithrombin-unfractionated heparin interaction assessed as change in antithrombin intrinsic fluorescence by fluorescence spectrophotometry
READOUT KIND: Kd (nM)
Numeric answer only, unit nM assumed.

Entry under test: "O=P(O)(O)O[C@@H]1[C@@H](OP(=O)(O)O)[C@H](OP(=O)(O)O)[C@@H](O)[C@@H](O)[C@H]1OP(=O)(O)O" . Its Kd was 45
